The origin of these recorded values is the RNAGym collection of RNA variant scans (doi:10.1126/science.aae0568).

B1: tRNA (parent)
chain: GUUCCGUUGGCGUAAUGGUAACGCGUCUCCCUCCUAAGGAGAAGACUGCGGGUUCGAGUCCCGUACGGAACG

variants of: B1; test: yeast fitness relative to wild type (ratio to wild type); higher = fitter; tRNA-Arg(CCU), competitive growth, 37 C, YPD
Fewer inactive variants are shown than the library holds.
As shown below, each of these variants has a reported yeast fitness value.
// response body must contain only the number

>>> print(df.to_string())
      variant_notation  result
0       C27A A57C C66U   0.538
1   U8C U26A A43U A70U   0.675
2        U2C C46G A65C   0.678
3  U13G A21C C46U G50A   0.582

For the next question, use this variant.
# lookup: yeast fitness of A36G A37G
0.816
